ASSAY SYSTEM: T1, human ACVR2A (human, UniProt P27037 20-135, limits assumed); further: test concentration or dose not given here
T1 construct: also called activin receptor, type II A
T1 sequence (P27037 20-135 limits assumed): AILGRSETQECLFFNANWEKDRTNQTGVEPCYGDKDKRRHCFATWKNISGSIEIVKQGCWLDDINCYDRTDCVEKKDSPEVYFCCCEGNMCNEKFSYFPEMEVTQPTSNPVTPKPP
EXPERIMENTAL DETAILS: ELISA
Decide using optical density: a value greater than or equal to 3 OD is label 1, a smaller one is label 0.

Examples with answers:
# BINDER, GROUP LABEL
data = [
    ("374_B07 (antibody, V domains shown, Group II) VH: EVQLLESGGGLVQPGGSLRLSCAASGFTFSSYGMHWVRQAPGKGLEWVSSINYNGGYKSYADSVKGRFTISRDNSKNTLYLQMNSLRAEDTAVYYCARAATWHDTHLDYWGQGTLVTVSS VL: DIQMTQSPSSLSASVGDRVTITCRASQSIISYLNWYQQKPGKAPKLLIYAATSLASGVPSRFSGSGSGTDFTLTISSLQPEDFATYYCQQSYESPLTFGGGTKVEIK", "label 1"),
    ("365_E06 (antibody, V domains shown, Group II) VH: EVQLLESGGGLVQPGGSLRLSCAASGFTFDSYGMNWVRQAPGKGLEWVSGINYNGGYTGYADSVKGRFTISRDNSKNTLYLQMNSLRAEDTAVYYCARAATWHDTHLDYWGQGTLVTVSS VL: DIQMTQSPSSLSASVGDRVTITCRASQSILTYLNWYQQKPGKAPKLVIYAATSRASGVPSRFSGSGSGTDFTLTISSLQPEDFATYYCQQSYNTPLTFGGGTKVEIK", "label 0"),
    ("376_F09 (antibody, V domains shown, Group II) VH: EVQLLESGGGLVQPGGSLRLSCAASGFTFDSYSMHWVRQAPGKGLEWVSSINYNGGYKSYADSVKGRFTISRDNSKNTLYLQMNSLRAEDTAVYYCARAATWHDTHLDYWGQGTLVTVSS VL: DIQMTQSPSSLSASVGDRVTITCRASQSILTYVNWYQQKPGKAPKLLIYAVTSRASGVPSRFSGSGSGTDFTLTISSLQPEDFATYYCQQSYDTPLTFGGGTKVEIK", "label 1"),
]

Now consider a different binder.
Inquiry: For this binder, is measured optical density 3 OD or higher? 369_A04 (antibody, V domains shown, Group II) VH: EVQLLESGGGLVQPGGSLRLSCAASGFTFDSYGMHWVRQAPGKGLEWVASINYNGGYKSYADSVKGRFTISRDNSKNTLYLQMNSLRAEDTAVYYCARAATWHDTHLDYWGQGTLVTVSS VL: DIQMTQSPSSLSASVGDRVTITCRASQSIVSYVNWYQQKPGKAPKLVIYAATSLASGVPSRFSGSGSGTDFTLTISSLQPEDFATYYCQQSYDLPLTFGGGTKVEIK
Reply text: label 0
